FYI, the data here is from the supplement of paper PMC10567573.

B1: HDAC6 (parent)
chain: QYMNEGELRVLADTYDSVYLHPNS

# Variants of: B1
# procedure_text: protein stability index of a GFP-peptide fusion (GPS, HEK-293T) (PSI 1-6); higher = more stable;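 note: lentivirally expressed fusions sorted by FACS into six bins by GFP to DsRed ratio, PSI derived from sequencing read proportions per bin multiplied by bin number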
# experimental_setup: c terminus: a fixed tail appended
For each record, write down the corresponding protein stability index.
One number for each entry.

Field: example entries. Status: answers known.
{"columns": ["entry_sequence", "protein stability index"],
 "data": [
  ["QYMNEGELRKLADTYDSVYLHPNS [V10K]", 2.01],
  ["QYMNEGELRVLADTYDSVYLEPNS [H21E]", 2.33],
  ["QYMNEGFLRVLADTYDSVYLHPNS [E7F]", 2.46],
  ["QYMNEGELGVLADTYDSVYLHPNS [R9G]", 2.18],
  ["QYMNEGELRVLADDYDSVYLHPNS [T14D]", 2.84]
]}

Quick request: protein stability index for each listed item, please.
1. PYMNEGELRVLADTYDSVYLHPNS [Q1P]
2. QYMNEGELRVLADTYDSVYLHPPS [N23P]
3. QYMNEGPLRVLADTYDSVYLHPNS [E7P]

2.63
1.57
2.64
